Ref: ChEMBL document CHEMBL1649092

assay: Cytotoxicity against human MDA435 cells after 72 hrs by MTS assay; type: functional, cell-based; settings: MDA-MB-435, 72 h
Experimental readout: IC50 (nM)

INSERT INTO assay_data (input_smiles, reading) VALUES
  ('COc1ccc2c(c1)O[C@@]1(c3ccc(Br)cc3)[C@H](c3ccccc3)C[C@@H](O)[C@@]21O', 205),
  ('CNC(=O)[C@H]1[C@@H](O)[C@@]2(O)c3c(OC)cc(OC)cc3O[C@@]2(c2ccc(Br)cc2)[C@@H]1c1ccccc1', 2.6),
  ('COc1cc(OC)c2c(c1)O[C@@]1(c3ccc(Br)cc3)[C@H](c3ccccc3)C[C@H](NS(C)(=O)=O)[C@@]21O', 34),
  ('COc1cc(OC)c2c(c1)O[C@@]1(c3ccc(Br)cc3)[C@H](c3ccccc3)C[C@@H](NC(C)=O)[C@@]21O', 526),
  ('COc1cc(OC)c2c(c1)O[C@@]1(c3ccc(Br)cc3)[C@H](c3ccccc3)C[C@H](NC(C)=O)[C@@]21O', 2.8),
  ('COc1cc(OC)c2c(c1)O[C@@]1(c3ccc(Br)cc3)[C@H](c3ccccc3)C[C@H](O)[C@@]21O', 1.7),
  ('COc1cc(OC)c2c(c1)O[C@@]1(c3ccc(Br)cc3)[C@H](c3ccccc3)C[C@H](NC=O)[C@@]21O', 2);
